Target: T1, human Fc Receptor-Like 5 (FcRL5), full length, expressed on cells (human, UniProt Q96RD9 16-977)
T1 construct: also called CD307e; IRTA2
T1 sequence: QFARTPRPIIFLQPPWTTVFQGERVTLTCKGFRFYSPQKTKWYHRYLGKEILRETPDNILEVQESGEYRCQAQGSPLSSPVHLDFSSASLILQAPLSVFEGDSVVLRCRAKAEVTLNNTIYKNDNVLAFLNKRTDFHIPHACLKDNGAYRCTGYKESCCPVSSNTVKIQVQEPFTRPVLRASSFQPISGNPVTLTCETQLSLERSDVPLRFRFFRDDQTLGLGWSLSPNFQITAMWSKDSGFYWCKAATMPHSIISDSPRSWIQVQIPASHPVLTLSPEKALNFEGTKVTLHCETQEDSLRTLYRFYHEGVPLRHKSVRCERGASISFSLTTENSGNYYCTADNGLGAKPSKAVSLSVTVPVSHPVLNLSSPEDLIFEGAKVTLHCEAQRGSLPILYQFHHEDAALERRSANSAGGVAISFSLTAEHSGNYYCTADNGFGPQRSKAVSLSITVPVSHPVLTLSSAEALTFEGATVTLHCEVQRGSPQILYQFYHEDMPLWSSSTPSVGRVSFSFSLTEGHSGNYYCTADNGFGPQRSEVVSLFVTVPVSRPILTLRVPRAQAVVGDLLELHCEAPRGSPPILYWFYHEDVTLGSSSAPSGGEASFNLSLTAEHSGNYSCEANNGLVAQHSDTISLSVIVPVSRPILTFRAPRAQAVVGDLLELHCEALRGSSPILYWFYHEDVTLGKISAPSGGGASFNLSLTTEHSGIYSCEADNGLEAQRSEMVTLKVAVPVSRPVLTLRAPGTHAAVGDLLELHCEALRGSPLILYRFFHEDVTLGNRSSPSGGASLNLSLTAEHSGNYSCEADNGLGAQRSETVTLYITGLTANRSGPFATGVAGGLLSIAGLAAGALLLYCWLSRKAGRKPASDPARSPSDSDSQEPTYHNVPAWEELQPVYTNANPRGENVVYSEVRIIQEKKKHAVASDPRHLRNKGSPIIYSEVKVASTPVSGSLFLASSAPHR
Assay: scFv phage: ELISA on His-tag FcRL5, flow cytometry on FcRL5-overexpressing 3T3 and Raji cells
measure name: binding result

Note to self: binding result recorded for ET200-123 scFv (scFv, VL-linker-VH; screened as scFv phage clone) scFv: QAVLTQPPSASGTPGQRVTISCSGSSSNIGSNTVNWYQQLPGTAPKLLMYNNDQRPSGVPDRFSGSKSGTSASLAISGLQSEDEADYYCAAWDDSLNGYVFGPGTKVTVLGSRGGGGSGGGGSGGGGSLEMAQVQLVESGAEVKKPGASVKVSCKASGYTFTSYGISWVRQAPGQGLEWMGWISAYNGNTNYAQKLQGRVTMTTDTSTSTAYMELRSLRSDDTAVYYCARDLSRGANPHYYYYYGMDVWGQGTTVTVSS was binds

Measured binding result, ET200-069 scFv (scFv, VL-linker-VH; screened as scFv phage clone; also called ET200-69) scFv: QSVVTQPPSASGTPGQRVTISCSGSSSNIGSNYVYWYQQLPGTAPKLLIYSNNQRPSGVPDRFSGSKSGTSASLAISGLRSEDEADYYCAAWDDSLSGYVFGTGTKLTVLGSRGGGGSGGGGSGGGGSLEMAQVQLQQWGAGLLKPSETLSLTCAVYGGSFSGYYWSWIRQPPGKGLEWIGEINHSGSTNYNPSLKSRVTISVDTSKNQFSLKLSSVTAADTAVYYCARLYEGGYHGWGSWLSSDSWGQGTLVTVSS : binds

So, ET200-097 scFv (scFv, VL-linker-VH; screened as scFv phage clone) scFv: LPVLTQPPSVSVSPGQTAIITCSGDKLGEKYVSWYQQKPGQSPVLVIDQDTRRPSGIPERFSGSNSGTTATLTISGTQAMDEADYYCQAWDRGVVFGGGTKLTVLGSRGGGGSGGGGSGGGGSLEMAEVQLVESGGDLVQPGRSLRLSCAASGFTFNDYAMHWVRQAPGKGLEWVSGISWSGNNIGYADSVKGRFTISRDNAKNSLYLQMNSLRAEDTALYYCAKDSIRYGITWGGFDYWGQGTLVTVSS ? Its binding result was binds
